Test system: A549
EXPERIMENT NOTES: NCI tumour cell line growth inhibition, 48 h
Active and inactive are the calls of the source. Cut-off read from the data, not from the text of the source: active = GI50 up to about 1.1 µM and inactive = higher.
Thanks in advance; please answer with one of these: active, inactive

Query: What did the test return for `N[C@@H](Cc1ccccc1)C(=O)N1CCC[C@@H]1P(=O)(Oc1ccccc1)Oc1ccccc1` ?
Reply: inactive

Query: # fetch the recorded call for CC1(C)OC2C(CO)OC(n3ccc(N)nc3=O)C2O1 (stereo not given) here
Reply: inactive

Query: Dear colleague, could you share the recorded outcome for CC[C@]1(Cc2ccc(OC)c(OC)c2)C=[N+]([O-])O[C@H](OC2CCCC2(c2ccccc2)c2ccccc2)[C@@H]1OC(=O)c1ccccc1 (stereo not given in full) when you have a moment?
Reply: inactive

Query: Called result for O=C1C2=C(CC3C(C2)C3(Br)Br)C(=O)C2=C1CC1C(C2)C1(Br)Br (stereo not given)
Reply: inactive
